Recorded values, source patent US20220387578A1.

// reported EC50 per item
- Tested target: H3 HA A/Hong Kong/1/1968 (H3N2), recombinant soluble trimer (influenza A virus, UniProt Q91MA7 17-530)
Give just the numeric value; mg/L need not be written.

INSERT INTO results (binder, measured_quantity, endpoint_result) VALUES
  ('rFluA-20 heavy chain mutant E97A (antibody, V domains shown) VH: QVQLQESGPGLVKPSETLSLTCSVSGVSVTSDIYYWTWIRQPPGKGLEWIGYIFYNGDTNYNPSLKSRVTMSIDTSKNEFSLRLTSVTAADTAVYFCARGTADLGYCSSGSCPNHWGQGTLVTVSS VL: DIQMTQSPSSLSASIGDRVTITCRPSQNIRSFLNWFQHKPGKAPKLLIYAASNLQSGVPSRFSGSGSGTEFTLTIRSLQPEDFATYYCQQSYNTPPTFGQGTKVEIK', 'EC50', 0.07),
  ('rFluA-20 heavy chain mutant T96A (antibody, V domains shown) VH: QVQLQESGPGLVKPSETLSLTCSVSGVSVTSDIYYWTWIRQPPGKGLEWIGYIFYNGDTNYNPSLKSRVTMSIDTSKNEFSLRLTSVTAADTAVYFCARGAEDLGYCSSGSCPNHWGQGTLVTVSS VL: DIQMTQSPSSLSASIGDRVTITCRPSQNIRSFLNWFQHKPGKAPKLLIYAASNLQSGVPSRFSGSGSGTEFTLTIRSLQPEDFATYYCQQSYNTPPTFGQGTKVEIK', 'EC50', 0.1);

-- ask Please report the recorded EC50 for rFluA-20 heavy chain mutant Y34A (antibody, V domains shown) VH: QVQLQESGPGLVKPSETLSLTCSVSGVSVTSDIAYWTWIRQPPGKGLEWIGYIFYNGDTNYNPSLKSRVTMSIDTSKNEFSLRLTSVTAADTAVYFCARGTEDLGYCSSGSCPNHWGQGTLVTVSS VL: DIQMTQSPSSLSASIGDRVTITCRPSQNIRSFLNWFQHKPGKAPKLLIYAASNLQSGVPSRFSGSGSGTEFTLTIRSLQPEDFATYYCQQSYNTPPTFGQGTKVEIK .
-- reply 0.07
